- assayDetails: protein stability index of a GFP-peptide fusion (yeast GPS) (PSI 1-4); higher = more stable; sorted into four equal gates, so the index is relative within each strain
- reportedConditions: doa10∆
I'd appreciate it if you could supply protein stability index values for the items below.
Answer field: number only, no words.

// query Identify the reported protein stability index for the following entry. SNTSTSKMLDAASSQVS [SNF12]
// result 2.51

// query Identify the reported protein stability index for the following entry. NNYKDLLAVAIAASYHY [RPP0]
// result 1.4

// query Identify the reported protein stability index for the following entry. KTAQTLDENLNSLSSNL [YJL041W/NSP1]
// result 2.48

// query Identify the reported protein stability index for the following entry. RVLTQDGRVYIGQLMAF [SMB1]
// result 3.48

// query Identify the reported protein stability index for the following entry. IVGKKIQEFLVVIEKRR [GRR1]
// result 3.23

// query Identify the reported protein stability index for the following entry. SKVGSADTGRDDTKETV [RPN11]
// result 3.14

// query Identify the reported protein stability index for the following entry. NNDLESVSMLLQYYILE [RRI2]
// result 2.94

// query Identify the reported protein stability index for the following entry. TNSVRLFEVNPSQTLFS [SRP21]
// result 2.65

// query Identify the reported protein stability index for the following entry. GVARIYASFNDTFVHVT [RPS14B]
// result 1.64

// query Identify the reported protein stability index for the following entry. RMLSSILDINVSSSKNK [SWP82]
// result 2.71

// query Identify the reported protein stability index for the following entry. HRKHIAVLKKIQSKAVE [YCG1]
// result 2.55

// query Identify the reported protein stability index for the following entry. AFSSVEHIIRDVHNGYI [COB]
// result 3.16

// query Identify the reported protein stability index for the following entry. KYIGEGSRMVRELFVMA [RPT6]
// result 2.24

// query Identify the reported protein stability index for the following entry. YDRKKLPRKEVDDVLGG [RPC11]
// result 3.2
